Origin of the recorded values: paper PMC8982737

assay_text: in vivo
test_settings: male, beagle, dog, iv, 0.1 mg/kg

[
  {
    "molecule": "Cn1cnc(Cn2c(=O)[nH]/c(=N\\c3cc4cn(C)nc4cc3Cl)n(Cc3cc(F)c(F)cc3F)c2=O)n1 [Compound 3]",
    "clearance [mL/min/kg]": 0.17
  }
]

----------
assay_text: Dog PK study
test_settings: male, beagle, in vivo, iv, 0.1 mg/kg, t1/2, dog, intravenous 0.1 mg/0.2 mL/kg, n = 2, nonfasted

[
  {
    "chemical_string": "Cn1cnc(Cn2c(=O)[nH]/c(=N\\c3cc4cn(C)nc4cc3Cl)n(Cc3cc(F)c(F)cc3F)c2=O)n1",
    "quantity_unit": "h",
    "half-life": 29.5
  }
]
